Below, each of the compounds is paired with its reported pEC50 value.
# Tested System: Cannabinoid Receptor 1 (CNR1) (Homo sapiens, UniProt P21554)
# Sequence (P21554 whole entry): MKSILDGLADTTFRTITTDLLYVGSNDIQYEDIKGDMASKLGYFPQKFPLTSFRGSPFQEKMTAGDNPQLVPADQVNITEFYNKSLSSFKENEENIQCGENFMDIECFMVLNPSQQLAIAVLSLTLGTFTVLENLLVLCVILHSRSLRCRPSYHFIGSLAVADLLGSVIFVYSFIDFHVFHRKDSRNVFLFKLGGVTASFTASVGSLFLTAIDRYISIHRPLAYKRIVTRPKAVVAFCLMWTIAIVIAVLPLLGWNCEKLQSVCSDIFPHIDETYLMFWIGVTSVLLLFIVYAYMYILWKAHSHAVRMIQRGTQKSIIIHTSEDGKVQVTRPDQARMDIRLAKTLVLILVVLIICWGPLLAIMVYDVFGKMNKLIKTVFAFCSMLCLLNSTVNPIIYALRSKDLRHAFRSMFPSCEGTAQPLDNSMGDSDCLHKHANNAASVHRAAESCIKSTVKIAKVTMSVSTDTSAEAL
# Procedure Text: cAMP assay, CNR1
pEC50: −log10 of the molar value. Counter-ions that a name gives are not always drawn.

Solved cases below.
Compound | pEC50
CNC(C)C(=O)c1c[nH]c2ccc(Br)cc12 (stereo not drawn) [BK-5Br-NM-AMT, hydrochloride] | < 5.00
CNC(C)C(=O)c1c[nH]c2ccc(F)cc12 (stereo not drawn) [BK-5F-NM-AMT, hydrochloride] | < 5.00

Query for Cannabinoid Receptor 1 (CNR1) (Homo sapiens, UniProt P21554): what pEC50 does the record show for CNC(C)C(=O)c1c[nH]c2ccc(Cl)cc12 (stereo not drawn) [BK-5Cl-NM-AMT, hydrochloride] ? < 5.00
